Tested on: ATP;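 also: ATP exposure 15 min at 22 °C before imaging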
Assay: switch fluorescence ratio, 500 uM ATP over buffer (Cy3 cluster intensity, sum of 5 cycles each) (fold (ratio)); higher = stronger signal-on switching upon ATP binding; sequences stand for … in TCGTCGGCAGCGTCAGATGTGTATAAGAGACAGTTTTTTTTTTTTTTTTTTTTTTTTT…TC
Details: aptamer strand: ATP DNA aptamer (quencher-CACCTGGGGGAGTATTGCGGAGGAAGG + anchor), 100 nM annealed; ATP concentration: 500 uM
# reported switch fluorescence ratio; entries follow
METRIC NAME: switch fluorescence ratio

• AAGGGGGAAG = 0.971
• AATTGTTTCA = 0.974
• TTAGGATTCG = 1.02
• ATGTTTGTTT = 0.993
• AAGATTTTGG = 0.979
• GTTTGGGGGA = 0.991
• CGAGGTGGCT = 1.01
• TGGTTTTGAT = 1
• AGCGTTTAGA = 0.989
• AATCTAATTG = 1
• GACAGTTTGT = 1.01
• TCAGGCGTTT = 0.996
• ATGCTGGTAT = 0.981
• CGGATGGGGG = 1.01
• GATGATTTTA = 1.02
